Test system: A/LiaoNing-ZhenXing/1109/2010(H1N1)
Experiment: CPE reduction assay, LN/1109 (H1N1)
Assay type: cell-based
Conditions: Influenza A virus, read-out: EC50
Parameter EC50: see the listing below.
# output: bare number, implied unit µM

Look over these answered cases.
INPUT: Identify the measured EC50 of CC(=O)OCC1O[C@H](NC(=O)[C@]23CCC(C)(C)CC2C2=CCC4[C@@]5(C)CC[C@H](O)C(C)(C)C5CC[C@@]4(C)[C@]2(C)CC3)C(OC(C)=O)C(OC(C)=O)[C@@H]1OC(C)=O (some centres unmarked) for A/LiaoNing-ZhenXing/1109/2010(H1N1).
OUTPUT: 6.58

INPUT: Give A/LiaoNing-ZhenXing/1109/2010(H1N1) EC50 for NC12CC3CC(CC(C3)C1)C2 [Amantadine, amantadine, reference compound]
OUTPUT: 0.44

Switching to the query record.
INPUT: Provide the documented EC50 with A/LiaoNing-ZhenXing/1109/2010(H1N1) as the system for CC1(C)CC[C@]2(C(=O)O[C@H]3OC(CO)[C@@H](O)C(O)C3O)C(O)C[C@]3(C)C(=CC[C@@H]4[C@@]5(C)CC[C@H](O)C(C)(C)[C@@H]5CC[C@]43C)[C@@H]2C1 (some centres unmarked)
OUTPUT: 17.8
